Data credit: ChEMBL document CHEMBL3351262

assay: Selectivity index, ratio of Kd for calf thymus DNA to Kd for human Hum21 [5'-G3(T2AG3)3-3'] G-quadruplex DNA
value kind: Ratio

| smiles notation | test result |
| --- | --- |
| CN1CCN(CCCCn2c3ccc(-c4nc5cc(N6CCN(C)CC6)ccc5[nH]4)cc3c3cc(-c4nc5cc(N6CCN(C)CC6)ccc5[nH]4)ccc32)CC1 | 576 |
| CN1CCN(CCCCn2c3ccc(-c4nc5cc(N6CCN(CCO)CC6)ccc5[nH]4)cc3c3cc(-c4nc5cc(N6CCN(CCO)CC6)ccc5[nH]4)ccc32)CC1 | 500 |

I = CN1CCN(CCCCn2c3ccc(-c4nc5cc(N6CCOCC6)ccc5[nH]4)cc3c3cc(-c4nc5cc(N6CCOCC6)ccc5[nH]4)ccc32)CC1
II = CN1CCN(CCCCn2c3ccc(-c4nc5cc(-c6nc7cc(N8CCN(C)CC8)ccc7[nH]6)ccc5[nH]4)cc3c3cc(-c4nc5cc(-c6nc7cc(N8CCN(C)CC8)ccc7[nH]6)ccc5[nH]4)ccc32)CC1
Given I and given II , which shows the smaller recorded Ratio? Refer to your chosen item by its label in the answer.
II

---

target: Telomerase reverse transcriptase (Homo sapiens, UniProt O14746); assay: Total inhibition of telomerase isolated form human A549 cells by TRAP-LIG assay
Sequence (O14746 whole entry): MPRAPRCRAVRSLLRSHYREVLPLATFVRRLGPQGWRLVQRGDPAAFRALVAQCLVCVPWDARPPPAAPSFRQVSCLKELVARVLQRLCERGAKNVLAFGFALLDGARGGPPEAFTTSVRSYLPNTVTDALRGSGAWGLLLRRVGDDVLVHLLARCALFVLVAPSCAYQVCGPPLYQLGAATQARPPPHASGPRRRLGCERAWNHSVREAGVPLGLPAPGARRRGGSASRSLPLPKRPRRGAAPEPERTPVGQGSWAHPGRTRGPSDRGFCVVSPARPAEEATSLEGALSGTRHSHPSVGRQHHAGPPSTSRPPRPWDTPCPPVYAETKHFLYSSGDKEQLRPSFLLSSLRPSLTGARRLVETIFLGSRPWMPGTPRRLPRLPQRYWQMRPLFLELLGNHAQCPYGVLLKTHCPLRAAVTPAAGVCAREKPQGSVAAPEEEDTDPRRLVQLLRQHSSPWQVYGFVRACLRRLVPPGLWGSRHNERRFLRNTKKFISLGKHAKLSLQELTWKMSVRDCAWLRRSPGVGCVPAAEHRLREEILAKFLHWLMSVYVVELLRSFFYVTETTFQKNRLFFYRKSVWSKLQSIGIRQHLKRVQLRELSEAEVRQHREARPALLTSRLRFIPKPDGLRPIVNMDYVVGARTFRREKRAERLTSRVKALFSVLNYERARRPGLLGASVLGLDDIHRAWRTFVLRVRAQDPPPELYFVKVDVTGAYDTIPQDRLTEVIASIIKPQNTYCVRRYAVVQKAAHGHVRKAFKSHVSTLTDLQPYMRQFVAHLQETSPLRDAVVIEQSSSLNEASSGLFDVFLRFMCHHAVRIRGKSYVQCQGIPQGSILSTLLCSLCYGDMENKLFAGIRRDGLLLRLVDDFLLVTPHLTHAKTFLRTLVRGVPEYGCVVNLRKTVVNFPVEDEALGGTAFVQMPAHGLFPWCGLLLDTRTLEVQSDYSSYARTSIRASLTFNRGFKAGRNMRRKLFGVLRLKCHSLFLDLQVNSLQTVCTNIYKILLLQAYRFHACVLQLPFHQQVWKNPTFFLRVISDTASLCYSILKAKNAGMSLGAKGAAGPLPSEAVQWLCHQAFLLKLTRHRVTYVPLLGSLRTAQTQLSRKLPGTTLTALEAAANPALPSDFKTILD
value kind: concentration giving total telomerase inhibition (µM)

Study these solved cases before continuing.
| smiles notation | endpoint unit | test result |
| --- | --- | --- |
| CN1CCN(CCCCn2c3ccc(-c4nc5cc(N6CCOCC6)ccc5[nH]4)cc3c3cc(-c4nc5cc(N6CCOCC6)ccc5[nH]4)ccc32)CC1 | µM | 3 |
| CN1CCN(CCCCn2c3ccc(-c4nc5cc(N6CCN(CCO)CC6)ccc5[nH]4)cc3c3cc(-c4nc5cc(N6CCN(CCO)CC6)ccc5[nH]4)ccc32)CC1 | µM | 1 |

I = CN1CCN(CCCCn2c3ccc(-c4nc5cc(N6CCN(C)CC6)ccc5[nH]4)cc3c3cc(-c4nc5cc(N6CCN(C)CC6)ccc5[nH]4)ccc32)CC1
II = CN1CCN(CCCCn2c3ccc(-c4nc5cc(-c6nc7cc(N8CCN(C)CC8)ccc7[nH]6)ccc5[nH]4)cc3c3cc(-c4nc5cc(-c6nc7cc(N8CCN(C)CC8)ccc7[nH]6)ccc5[nH]4)ccc32)CC1
Short answer wanted: higher concentration giving total telomerase inhibition, I or II ? Refer to your chosen item by its label in the answer.
II

---

test: Binding affinity to human Hum21 [5'-G3(T2AG3)3-3'] G-quadruplex DNA at 5 uM in 10 mM pH 7.4 Tris-Hcl buffer containing 0.1 mM EDTA and 0.1 M KCl by UV-Vis absorption sperctrometry
pKd: −log10 of the molar value.
value kind: pKd

Study these solved cases before continuing.
| smiles notation | test result |
| --- | --- |
| CN1CCN(CCCCn2c3ccc(-c4nc5cc(N6CCN(C)CC6)ccc5[nH]4)cc3c3cc(-c4nc5cc(N6CCN(C)CC6)ccc5[nH]4)ccc32)CC1 | 6.89 |
| CN1CCN(CCCCn2c3ccc(-c4nc5cc(N6CCOCC6)ccc5[nH]4)cc3c3cc(-c4nc5cc(N6CCOCC6)ccc5[nH]4)ccc32)CC1 | 6.48 |

P = CN1CCN(CCCCn2c3ccc(-c4nc5cc(N6CCN(CCO)CC6)ccc5[nH]4)cc3c3cc(-c4nc5cc(N6CCN(CCO)CC6)ccc5[nH]4)ccc32)CC1
Q = CN1CCN(CCCCn2c3ccc(-c4nc5cc(-c6nc7cc(N8CCN(C)CC8)ccc7[nH]6)ccc5[nH]4)cc3c3cc(-c4nc5cc(-c6nc7cc(N8CCN(C)CC8)ccc7[nH]6)ccc5[nH]4)ccc32)CC1
Short answer wanted: higher pKd, P or Q ? Refer to your chosen item by its label in the answer.
P
